# Tested on: Escherichia coli TOP10
# Protocol text: shrunken log2 fold change of peptide-encoding DNA abundance (4.5 h post-induction vs induction); higher = less antimicrobial activity (less host growth inhibition)
# Condition description: time post-induction: 4.5 h; library: site-saturation at positions 5, 18, 19, 20

{"Chain sequence": "RRIRDRPPRLPRPRPRPNYWPRP", "shrunken log2 fold change": -0.218}
{"Chain sequence": "RRIRRRPPRLPRPRPRPECCPRP", "shrunken log2 fold change": 0.566}
{"Chain sequence": "RRIRIRPPRLPRPRPRPEVAPRP", "shrunken log2 fold change": 0.218}
{"Chain sequence": "RRIRQRPPRLPRPRPRPYLRPRP", "shrunken log2 fold change": -0.176}
{"Chain sequence": "RRIRFRPPRLPRPRPRPRKAPRP", "shrunken log2 fold change": 0.182}
{"Chain sequence": "RRIRQRPPRLPRPRPRPTRQPRP", "shrunken log2 fold change": 0.798}
{"Chain sequence": "RRIRLRPPRLPRPRPRPRPCPRP", "shrunken log2 fold change": 0.421}
{"Chain sequence": "RRIRIRPPRLPRPRPRPNNQPRP", "shrunken log2 fold change": -0.836}
{"Chain sequence": "RRIRMRPPRLPRPRPRPGIIPRP", "shrunken log2 fold change": -0.0597}
{"Chain sequence": "RRIRERPPRLPRPRPRPGHRPRP", "shrunken log2 fold change": -0.117}
{"Chain sequence": "RRIRKRPPRLPRPRPRPSEQPRP", "shrunken log2 fold change": 0.0244}
{"Chain sequence": "RRIRDRPPRLPRPRPRPHSDPRP", "shrunken log2 fold change": -0.115}
{"Chain sequence": "RRIRDRPPRLPRPRPRPYRPPRP", "shrunken log2 fold change": -0.00509}
{"Chain sequence": "RRIRKRPPRLPRPRPRPGEDPRP", "shrunken log2 fold change": 0.0621}
{"Chain sequence": "RRIRGRPPRLPRPRPRPGCHPRP", "shrunken log2 fold change": 0.549}
{"Chain sequence": "RRIRMRPPRLPRPRPRPKDIPRP", "shrunken log2 fold change": -0.0934}
{"Chain sequence": "RRIRVRPPRLPRPRPRPRMQPRP", "shrunken log2 fold change": 0.123}
{"Chain sequence": "RRIRHRPPRLPRPRPRPWPIPRP", "shrunken log2 fold change": -0.00691}
{"Chain sequence": "RRIRIRPPRLPRPRPRPETSPRP", "shrunken log2 fold change": -0.239}
{"Chain sequence": "RRIRKRPPRLPRPRPRPHWMPRP", "shrunken log2 fold change": 0.0937}
{"Chain sequence": "RRIRCRPPRLPRPRPRPIMSPRP", "shrunken log2 fold change": -0.128}
{"Chain sequence": "RRIRFRPPRLPRPRPRPQENPRP", "shrunken log2 fold change": 0.133}
{"Chain sequence": "RRIRSRPPRLPRPRPRPSMMPRP", "shrunken log2 fold change": -0.105}
{"Chain sequence": "RRIRKRPPRLPRPRPRPPYLPRP", "shrunken log2 fold change": 0.0134}
{"Chain sequence": "RRIRFRPPRLPRPRPRPIISPRP", "shrunken log2 fold change": -0.332}
{"Chain sequence": "RRIRSRPPRLPRPRPRPHWSPRP", "shrunken log2 fold change": -0.0455}
{"Chain sequence": "RRIRGRPPRLPRPRPRPIYAPRP", "shrunken log2 fold change": 0.14}
{"Chain sequence": "RRIRHRPPRLPRPRPRPYPVPRP", "shrunken log2 fold change": -0.00992}
{"Chain sequence": "RRIRGRPPRLPRPRPRPVEVPRP", "shrunken log2 fold change": 1.03}
{"Chain sequence": "RRIRDRPPRLPRPRPRPNQLPRP", "shrunken log2 fold change": -0.0966}
{"Chain sequence": "RRIRMRPPRLPRPRPRPFPPPRP", "shrunken log2 fold change": 0.103}
{"Chain sequence": "RRIRYRPPRLPRPRPRPPRHPRP", "shrunken log2 fold change": 0.00412}

---

# Test system: Escherichia coli TOP10
# Protocol text: shrunken log2 fold change of peptide-encoding DNA abundance (4.5 h post-induction vs induction); higher = less antimicrobial activity (less host growth inhibition)
# Condition description: time post-induction: 4.5 h; library: site-saturation at positions 5, 18, 19, 20

{"Chain sequence": "RRIRGRPPRLPRPRPRPHVLPRP", "shrunken log2 fold change": -0.00476}
{"Chain sequence": "RRIRSRPPRLPRPRPRPINGPRP", "shrunken log2 fold change": -0.00748}
{"Chain sequence": "RRIRFRPPRLPRPRPRPVFHPRP", "shrunken log2 fold change": -0.598}
{"Chain sequence": "RRIRIRPPRLPRPRPRPLQMPRP", "shrunken log2 fold change": -0.264}
{"Chain sequence": "RRIRPRPPRLPRPRPRPISPPRP", "shrunken log2 fold change": -0.115}
{"Chain sequence": "RRIRGRPPRLPRPRPRPIDLPRP", "shrunken log2 fold change": 0.00416}
{"Chain sequence": "RRIRSRPPRLPRPRPRPFVHPRP", "shrunken log2 fold change": -0.291}
{"Chain sequence": "RRIRGRPPRLPRPRPRPDCPPRP", "shrunken log2 fold change": 0.22}

---

# System: Escherichia coli TOP10
# Protocol text: shrunken log2 fold change of peptide-encoding DNA abundance (4.5 h post-induction vs induction); higher = less antimicrobial activity (less host growth inhibition)
# Condition description: time post-induction: 4.5 h; library: site-saturation at positions 5, 18, 19, 20
Classification field: enter Y for shrunken log2 fold change values not below 0.07, N for values below it.

{"Chain sequence": "RRIRYRPPRLPRPRPRPVQQPRP", "System tested": "Escherichia coli TOP10", "Class label": "N"}
{"Chain sequence": "RRIRMRPPRLPRPRPRPHPRPRP", "System tested": "Escherichia coli TOP10", "Class label": "Y"}
{"Chain sequence": "RRIRYRPPRLPRPRPRPWREPRP", "System tested": "Escherichia coli TOP10", "Class label": "N"}
{"Chain sequence": "RRIRCRPPRLPRPRPRPAELPRP", "System tested": "Escherichia coli TOP10", "Class label": "Y"}
{"Chain sequence": "RRIRFRPPRLPRPRPRPGGPPRP", "System tested": "Escherichia coli TOP10", "Class label": "Y"}
{"Chain sequence": "RRIRSRPPRLPRPRPRPASAPRP", "System tested": "Escherichia coli TOP10", "Class label": "Y"}
{"Chain sequence": "RRIRTRPPRLPRPRPRPVGLPRP", "System tested": "Escherichia coli TOP10", "Class label": "N"}
{"Chain sequence": "RRIRPRPPRLPRPRPRPMRMPRP", "System tested": "Escherichia coli TOP10", "Class label": "Y"}
{"Chain sequence": "RRIRCRPPRLPRPRPRPAHMPRP", "System tested": "Escherichia coli TOP10", "Class label": "N"}
{"Chain sequence": "RRIRGRPPRLPRPRPRPASPPRP", "System tested": "Escherichia coli TOP10", "Class label": "Y"}
{"Chain sequence": "RRIRVRPPRLPRPRPRPNAPPRP", "System tested": "Escherichia coli TOP10", "Class label": "Y"}
{"Chain sequence": "RRIRDRPPRLPRPRPRPNWSPRP", "System tested": "Escherichia coli TOP10", "Class label": "N"}
{"Chain sequence": "RRIRWRPPRLPRPRPRPCKMPRP", "System tested": "Escherichia coli TOP10", "Class label": "N"}
{"Chain sequence": "RRIRMRPPRLPRPRPRPALAPRP", "System tested": "Escherichia coli TOP10", "Class label": "Y"}

---

# Test system: Escherichia coli TOP10;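 further: peptides expressed intracellularly from a pBAD plasmid library in pooled LB shake-flask culture, induced with 0.3% L-arabinose, DNA abundance read by NGS, three biological replicates, DESeq2 with apeglm shrinkage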
# Protocol text: shrunken log2 fold change of peptide-encoding DNA abundance (4.5 h post-induction vs induction); higher = less antimicrobial activity (less host growth inhibition)
# Condition description: time post-induction: 4.5 h; library: site-saturation at positions 5, 18, 19, 20

{"Chain sequence": "RRIRFRPPRLPRPRPRPHFDPRP", "shrunken log2 fold change": -0.107}
{"Chain sequence": "RRIRSRPPRLPRPRPRPQFTPRP", "shrunken log2 fold change": -0.714}
{"Chain sequence": "RRIRPRPPRLPRPRPRPYDYPRP", "shrunken log2 fold change": -0.355}
{"Chain sequence": "RRIRYRPPRLPRPRPRPESIPRP", "shrunken log2 fold change": -0.42}
{"Chain sequence": "RRIRTRPPRLPRPRPRPQAQPRP", "shrunken log2 fold change": 0.017}
{"Chain sequence": "RRIRDRPPRLPRPRPRPMWSPRP", "shrunken log2 fold change": -0.0459}
{"Chain sequence": "RRIRLRPPRLPRPRPRPQFMPRP", "shrunken log2 fold change": -0.462}
{"Chain sequence": "RRIRFRPPRLPRPRPRPNHDPRP", "shrunken log2 fold change": -0.332}
{"Chain sequence": "RRIRYRPPRLPRPRPRPRACPRP", "shrunken log2 fold change": -0.143}
{"Chain sequence": "RRIRCRPPRLPRPRPRPSLKPRP", "shrunken log2 fold change": -0.23}
{"Chain sequence": "RRIRERPPRLPRPRPRPHTVPRP", "shrunken log2 fold change": -0.346}
{"Chain sequence": "RRIRWRPPRLPRPRPRPRPMPRP", "shrunken log2 fold change": 0.427}
{"Chain sequence": "RRIRFRPPRLPRPRPRPPVIPRP", "shrunken log2 fold change": 0.0684}
{"Chain sequence": "RRIRGRPPRLPRPRPRPDQEPRP", "shrunken log2 fold change": 1.05}
{"Chain sequence": "RRIRGRPPRLPRPRPRPMHIPRP", "shrunken log2 fold change": 1.77}
{"Chain sequence": "RRIRERPPRLPRPRPRPAPIPRP", "shrunken log2 fold change": 0.0258}
{"Chain sequence": "RRIRFRPPRLPRPRPRPDSIPRP", "shrunken log2 fold change": -0.0087}
{"Chain sequence": "RRIRHRPPRLPRPRPRPASKPRP", "shrunken log2 fold change": -0.0351}
{"Chain sequence": "RRIRPRPPRLPRPRPRPEQKPRP", "shrunken log2 fold change": 0.000209}
{"Chain sequence": "RRIRWRPPRLPRPRPRPYLEPRP", "shrunken log2 fold change": -0.112}
{"Chain sequence": "RRIRWRPPRLPRPRPRPFWDPRP", "shrunken log2 fold change": 0.00494}
{"Chain sequence": "RRIRTRPPRLPRPRPRPYTAPRP", "shrunken log2 fold change": -0.389}
{"Chain sequence": "RRIRHRPPRLPRPRPRPQWDPRP", "shrunken log2 fold change": -0.0406}
{"Chain sequence": "RRIRTRPPRLPRPRPRPSYWPRP", "shrunken log2 fold change": -0.153}
{"Chain sequence": "RRIRGRPPRLPRPRPRPKHTPRP", "shrunken log2 fold change": 0.743}
{"Chain sequence": "RRIRNRPPRLPRPRPRPFQYPRP", "shrunken log2 fold change": -0.0242}
{"Chain sequence": "RRIRCRPPRLPRPRPRPPVPPRP", "shrunken log2 fold change": 0.587}
{"Chain sequence": "RRIRQRPPRLPRPRPRPSCIPRP", "shrunken log2 fold change": -0.238}
{"Chain sequence": "RRIRIRPPRLPRPRPRPYTQPRP", "shrunken log2 fold change": -1.02}
{"Chain sequence": "RRIRRRPPRLPRPRPRPYREPRP", "shrunken log2 fold change": -0.344}
{"Chain sequence": "RRIRIRPPRLPRPRPRPHLLPRP", "shrunken log2 fold change": 0.0103}
{"Chain sequence": "RRIRGRPPRLPRPRPRPNPAPRP", "shrunken log2 fold change": 0.231}

Where these numbers come from: the supplement of paper PMC9112550
